molecular target: T1, human c-kit (recombinant, on BIAcore chip or beads) (human, UniProt P10721 26-524); experiment: BIAcore, c-kit on SA chip
T1 construct: extracellular domain; also called hcKIT; biotinylated human c-kit
T1 sequence (P10721 26-524): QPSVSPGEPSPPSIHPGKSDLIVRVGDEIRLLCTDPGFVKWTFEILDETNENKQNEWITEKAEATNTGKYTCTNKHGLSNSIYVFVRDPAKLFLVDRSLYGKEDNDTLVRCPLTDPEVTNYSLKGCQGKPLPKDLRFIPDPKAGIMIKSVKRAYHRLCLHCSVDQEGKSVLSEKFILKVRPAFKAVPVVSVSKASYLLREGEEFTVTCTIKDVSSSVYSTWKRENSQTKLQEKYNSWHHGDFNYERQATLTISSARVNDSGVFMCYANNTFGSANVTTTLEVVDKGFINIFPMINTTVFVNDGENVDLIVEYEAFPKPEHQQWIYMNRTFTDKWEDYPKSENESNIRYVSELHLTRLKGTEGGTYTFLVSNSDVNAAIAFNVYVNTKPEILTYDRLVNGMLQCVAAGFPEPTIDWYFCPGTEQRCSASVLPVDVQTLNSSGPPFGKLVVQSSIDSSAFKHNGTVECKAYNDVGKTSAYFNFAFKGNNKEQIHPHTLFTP
Measure name: Kd (nM)

(1) DOM28h-66 (other, dAb, C-terminal FLAG tag (pDOM10); also called DOM28h-066) EVQLLESGGGLVQPGGSLRLSCAASGFTFPLYEMHWVRQAPGKGLEWVSRISPTGATTYYADSVKGRFTISRDNSKNTLYLQMNSLRAEDTAVYYCAKDRRGRAGVTFDYWGQGTLVTVSS
(2) DOM28h-78 (other, dAb, C-terminal FLAG tag (pDOM10)) EVQLLESGGGLVQPGGSLRLSCAASGFTFEHYPMGWVRQAPGKGLEWVSHISYDGTDTYYADSVKGRFTISRDNSKNTLYLQMNSLRAEDTAVYYCAKFHNQWDIYSFDYWGQGTLVTVSS
(3) DOM28h-20 (other, dAb, C-terminal FLAG tag (pDOM10)) DIQMTQSPSSLSASVGDRVTITCRASRSISDELTWYQQKPGKAPKLLISWGSSLQSGVPSRFSGSGSGTDFTLTISSLQPEDFATYYCLQTWELPVTFGQGTKVEIKR
(4) DOM28h-33 (other, dAb, C-terminal FLAG tag (pDOM10); also called DOM28h-033) EVQLLESGGGLVQPGGSLRLSCAVSGFTFWNYRMGWVRQAPGKGLEWVSSITPQGTHTYYADSVKGRFTISRDNSKNTLYLQMNSLRAEDTAVYYCAKILSMSENHFDYWGQGTLVTVSS
Task: Could you list the above binders by Kd, going from the biggest number down? Return the labels ranked in the requested order, please.
Result: 1, 3, 2, 4
